# EXPERIMENTAL_PROTOCOL: gradient 5% acetonitrile 3 min, to 50% in 2 min, to 85% in 15 min, held 3 min, 100 µL/min
# RECORDED_CONDITIONS: column: Zorbax Extend-C18 2.1 x 50 mm; eluents: water / acetonitrile, 0.1% formic acid

COMPOUND: COc1cccc(CNC(=O)c2cc(NC(C)=O)cc3nc(C)ccc23)c1OC
RP-LC retention time [s]: 594
//
COMPOUND: O=C(CSc1ccc(N2CCCC(C(=O)NC3CC3)C2)nn1)Nc1cc(F)ccc1Cl (stereo not given)
RP-LC retention time [s]: 660
//
COMPOUND: CCCN(CC1CCOC1)C(=O)Nc1cc(F)cc(F)c1 (stereo not given)
RP-LC retention time [s]: 871
//
COMPOUND: CC(C)N1C(=O)C(C)(C(=O)Nc2ccc(F)cc2)Oc2cccnc21 (stereo not given)
RP-LC retention time [s]: 986
//
COMPOUND: COc1ccccc1/C=C1\Cc2ccccc2C1=O
RP-LC retention time [s]: 1140

###

# EXPERIMENTAL_PROTOCOL: gradient 5% acetonitrile 3 min, to 50% in 2 min, to 85% in 15 min, held 3 min, 100 µL/min
# RECORDED_CONDITIONS: column: Zorbax Extend-C18 2.1 x 50 mm; eluents: water / acetonitrile, 0.1% formic acid
RP-LC retention time values by entry

COMPOUND: COc1ccccc1CNC1=NCCNC12CCN(S(=O)(=O)c1ccccc1)CC2
RP-LC retention time (s): 692
--
COMPOUND: COc1c(C(=O)NC(C)(C)C)sc2ccc(F)cc12
RP-LC retention time (s): 1080
--
COMPOUND: COC(=O)c1ccc(NC(=O)C(=O)NCc2ccccn2)cc1
RP-LC retention time (s): 592
--
COMPOUND: O=C(c1ccsc1)N1CCN(Cc2ccc(=O)n(CC3CC3)c2)CC1
RP-LC retention time (s): 543
--
COMPOUND: CN(C)c1cccc(-c2nc(C3CC(=O)N(c4ccc(F)cc4)C3)no2)c1 (stereo not given)
RP-LC retention time (s): 1030
--
COMPOUND: CCCc1nc2ccc(CCC(=O)Nc3cc(OC)cc(OC)c3)cc2[nH]1
RP-LC retention time (s): 657
--
COMPOUND: Cc1ccc(C)c(NC(=O)Cn2cnc3nc(N4CCCC(C(=O)NC(C)C)C4)sc3c2=O)c1 (stereo not given)
RP-LC retention time (s): 731
--
COMPOUND: O=C(Nc1nccs1)c1ccc2c(c1)CCCC2
RP-LC retention time (s): 869
--
COMPOUND: CC(C)c1noc(-c2ccc(-n3cnc(C(=O)NC4CCCC4)c3)nc2)n1
RP-LC retention time (s): 915
--
COMPOUND: O=C(Nc1ccc(-c2cn3cccnc3n2)cc1)c1cccc(Cl)c1
RP-LC retention time (s): 664
--
COMPOUND: CCN(CC)S(=O)(=O)c1ccc(F)c(-c2nnc(-c3ccccc3Br)o2)c1
RP-LC retention time (s): 1090
--
COMPOUND: CC(C)CCNC(=O)C1CCN(c2nc3ccc(-c4cncnc4)nc3s2)CC1
RP-LC retention time (s): 824
--
COMPOUND: Cc1cccc(CCNC(=O)C2CCCN(c3ncnc4c3nc3n4CCCCC3)C2)c1 (stereo not given)
RP-LC retention time (s): 819
--
COMPOUND: c1ccc(Cn2cnnc2C2CCCCN2Cc2ccoc2)cc1 (stereo not given)
RP-LC retention time (s): 601
--
COMPOUND: CCOc1nc2ccccc2nc1N1CCCC(C(=O)NC(C)c2ccccc2)C1 (stereo not given)
RP-LC retention time (s): 1120
--
COMPOUND: COc1ccccc1-c1nn2c(-c3cc(C(C)C)[nH]n3)nnc2s1
RP-LC retention time (s): 872
--
COMPOUND: CCCn1c(=O)sc2cc(S(=O)(=O)N3CCC(C(=O)Nc4ccc(F)cc4)CC3)ccc21
RP-LC retention time (s): 979
--
COMPOUND: CCOc1ccc(NC(=O)CSc2nnc3c4cc(-c5ccc(C)c(C)c5)nn4ccn23)cc1
RP-LC retention time (s): 973
--
COMPOUND: N#Cc1cccc(S(=O)(=O)NC2CCc3nn(CC4CC4)c(=O)n3CC2)c1 (stereo not given)
RP-LC retention time (s): 706
--
COMPOUND: CCN1CCCn2cc(S(=O)(=O)N(C)c3ccc(C)cc3)cc2C1=O
RP-LC retention time (s): 756
